measurement.target: T1, amino acid residues 26-148 of human ANGPTL4 fused in-line to mouse IgG2a (hANGPTL4-mFc) (human)
T1 construct: contains the N-terminal coiled-coil region
T1 chain: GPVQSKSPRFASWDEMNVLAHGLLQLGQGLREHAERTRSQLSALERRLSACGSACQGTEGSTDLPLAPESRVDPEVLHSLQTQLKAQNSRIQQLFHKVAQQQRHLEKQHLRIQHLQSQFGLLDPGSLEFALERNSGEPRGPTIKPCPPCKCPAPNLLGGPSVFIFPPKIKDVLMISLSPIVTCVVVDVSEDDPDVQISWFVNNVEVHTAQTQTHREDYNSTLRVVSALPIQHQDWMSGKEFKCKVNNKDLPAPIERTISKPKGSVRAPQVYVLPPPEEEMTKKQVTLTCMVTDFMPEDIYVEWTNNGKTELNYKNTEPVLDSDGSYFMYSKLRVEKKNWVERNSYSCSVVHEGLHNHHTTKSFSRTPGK
assay: SPR (Biacore), 25° C., pH 7.2, antigen captured by anti-mFc
Please go through the items and note down their kon.

Query H1H284P (antibody, V domains shown, also called entire H1H284 mAb; Full mAb) VH: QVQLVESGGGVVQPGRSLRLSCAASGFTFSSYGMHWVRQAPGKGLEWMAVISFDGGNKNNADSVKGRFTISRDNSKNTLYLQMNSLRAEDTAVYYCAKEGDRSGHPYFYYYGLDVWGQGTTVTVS VL: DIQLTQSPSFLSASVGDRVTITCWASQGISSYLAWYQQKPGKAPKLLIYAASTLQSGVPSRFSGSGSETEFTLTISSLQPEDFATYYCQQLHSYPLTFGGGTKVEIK yields kon of 274000 M⁻¹ s⁻¹

Just so you know, measured kon for H1H284P Fab fragment (Fab, V domains shown, Fab made by papain digestion of H1H284P (IgG1); also called H1H284 Fab) VH: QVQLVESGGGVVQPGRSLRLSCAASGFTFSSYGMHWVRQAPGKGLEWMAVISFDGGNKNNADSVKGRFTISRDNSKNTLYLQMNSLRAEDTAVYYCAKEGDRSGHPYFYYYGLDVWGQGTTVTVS VL: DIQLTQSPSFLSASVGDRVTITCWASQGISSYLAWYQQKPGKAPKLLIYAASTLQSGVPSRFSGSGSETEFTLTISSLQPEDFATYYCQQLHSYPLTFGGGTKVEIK came out at 245000 M⁻¹ s⁻¹

Recorded result, H1H268P (antibody, V domains shown, also called entire H1H268 mAb; Full mAb) VH: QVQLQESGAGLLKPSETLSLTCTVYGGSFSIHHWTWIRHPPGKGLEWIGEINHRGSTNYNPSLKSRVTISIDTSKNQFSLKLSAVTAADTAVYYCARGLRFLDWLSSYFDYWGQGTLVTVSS VL: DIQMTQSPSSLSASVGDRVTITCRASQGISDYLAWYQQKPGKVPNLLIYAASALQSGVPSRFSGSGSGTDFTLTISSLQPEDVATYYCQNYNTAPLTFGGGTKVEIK , kon: 153000 M⁻¹ s⁻¹
